MEASURED_ATTRIBUTE: melting point (°C)
Respond with the bare value in °C.

INSERT INTO assay_data (compound, data_value) VALUES
  ('CC1CCCC1', -142),
  ('N#CC1(c2ccccc2)C=Cc2ccccc21 (stereo not drawn)', 77),
  ('NNC(=O)c1ccc(Br)cc1 [4-bromobenzhydrazide]', 168),
  ('C=CC(=O)OCCCC [N-butyl acrylate]', -64),
  ('C1CC[C@H]2CCCC[C@H]2C1 [cis-decahydronaphthalene]', -43);

Exam item: Name the reported melting point value associated with the compound O=c1[nH]c(=O)n([C@@H]2O[C@H](CO)[C@@H](O)[C@H]2O)cc1Br
Marked response: 192

Exam item: Now consider O=[N+]([O-])c1cc(Cl)[n+]([O-])c(Cl)c1 [2,6-dichloro-4-nitropyridine n-oxide] .
Marked response: 178

Exam item: Another compound to check: Cc1ncc(CO)c(C=O)c1O
Marked response: 172

Exam item: Can you check CC(C)c1cccc(C(C)C)c1 [m-diisopropylbenzene] next?
Marked response: -63

Exam item: Same lookup for O=C(O)c1ccccc1OP(=O)(O)O , please.
Marked response: 168

Exam item: Check CCOP(=S)(OCC)Oc1nc(Cl)n(C(C)C)n1 too.
Marked response: 25

Exam item: Likewise for N#CCC(=O)c1ccco1 ?
Marked response: 79

Exam item: Try this compound next: CC(=O)N[C@@H](Cc1ccccc1)C(=O)O
Marked response: 168

Exam item: And the next one, CCCN(CCC)S(=O)(=O)c1ccc(C(=O)O)cc1 ?
Marked response: 199

Cited source for all entries: the Bradley open melting point set (2014)
